# Assay system: QscR (Pseudomonas aeruginosa, UniProt G3XD77)
# Condition set: E. coli JLD271 QscR reporter
Value type: EC50 (nM)

In [3]: df
Out[3]:
                                   compound  value_type  experimental_value
0  O=C(CCCOc1ccc(Cl)cc1)NC1CCOC1=O (stereo not shown)        EC50                  16
